Where do these numbers come from? They come from paper PMC4138991.

# ASSAY_SUMMARY: MTT growth inhibition assay
# Assay type: cell-based
# COND: human, SJ-G2 glioblastoma cells
PARAMETER: GI50 at 72 h

# INPUT_SMILES, EXPERIMENTAL_RESULT
rows = [
    ("O=C(N/N=C/c1cccc(O)c1O)c1cc2ccccc2cc1O", "> 50 µM"),
    ("O=C(N/N=C/c1ccc(O)c(O)c1)c1cc2ccccc2cc1O", "12 µM"),
]

Would you kindly share the measured GI50 at 72 h for O=C(N/N=C/c1cc(O)c(O)cc1O)c1cc2ccccc2cc1O ? > 50 µM

###

# STUDY_SYSTEM: DynI (rec), full-length human dynamin I (Homo sapiens, UniProt Q05193)
# Sequence (Q05193 1-864): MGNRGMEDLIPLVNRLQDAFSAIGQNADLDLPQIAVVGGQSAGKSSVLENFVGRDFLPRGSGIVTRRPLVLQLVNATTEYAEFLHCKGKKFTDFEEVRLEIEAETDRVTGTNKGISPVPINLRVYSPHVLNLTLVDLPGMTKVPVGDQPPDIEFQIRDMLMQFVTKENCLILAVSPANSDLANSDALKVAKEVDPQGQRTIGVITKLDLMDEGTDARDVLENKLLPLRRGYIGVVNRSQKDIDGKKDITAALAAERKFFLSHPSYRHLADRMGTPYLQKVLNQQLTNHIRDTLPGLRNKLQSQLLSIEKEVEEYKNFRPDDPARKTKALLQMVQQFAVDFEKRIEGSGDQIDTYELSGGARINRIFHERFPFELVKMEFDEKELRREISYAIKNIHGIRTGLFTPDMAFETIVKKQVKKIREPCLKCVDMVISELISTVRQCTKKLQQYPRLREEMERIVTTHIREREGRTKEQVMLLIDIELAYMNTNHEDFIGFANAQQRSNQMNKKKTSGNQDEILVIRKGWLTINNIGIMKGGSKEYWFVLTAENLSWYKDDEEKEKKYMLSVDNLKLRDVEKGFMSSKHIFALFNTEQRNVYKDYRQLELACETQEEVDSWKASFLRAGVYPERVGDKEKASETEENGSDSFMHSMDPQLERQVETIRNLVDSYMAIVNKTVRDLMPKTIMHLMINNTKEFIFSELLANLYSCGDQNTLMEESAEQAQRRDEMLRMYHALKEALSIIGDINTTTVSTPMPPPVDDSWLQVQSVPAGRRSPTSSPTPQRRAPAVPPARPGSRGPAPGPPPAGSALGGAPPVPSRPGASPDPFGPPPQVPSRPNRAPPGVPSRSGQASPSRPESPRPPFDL
# ASSAY_SUMMARY: PS-stimulated GTPase assay with recombinant dynamin I from Sf21 cells
# Type: biochemical
# COND: Absence of Tween; DynI 20 nM; no unit in table
PARAMETER: pIC50
The meaning of pIC50 here: minus log10 of the concentration in molar units.

Find the recorded pIC50 belonging to O=C(N/N=C/c1cc(O)c(O)cc1O)c1cc2ccccc2cc1O [4a] and report it. 5.96
